Target: UniProt Q6DWJ6
Sequence (Q6DWJ6 whole entry): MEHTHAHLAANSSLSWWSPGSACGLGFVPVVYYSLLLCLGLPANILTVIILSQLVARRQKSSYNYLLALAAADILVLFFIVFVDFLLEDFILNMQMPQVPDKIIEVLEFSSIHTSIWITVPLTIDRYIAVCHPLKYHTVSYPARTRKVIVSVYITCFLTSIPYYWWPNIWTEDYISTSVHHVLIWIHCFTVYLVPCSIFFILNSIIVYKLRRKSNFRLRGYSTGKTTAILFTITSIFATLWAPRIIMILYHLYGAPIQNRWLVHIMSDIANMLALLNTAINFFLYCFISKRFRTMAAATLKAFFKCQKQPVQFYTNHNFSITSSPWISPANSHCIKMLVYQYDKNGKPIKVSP
Test: GPR139 Agonist titration / agonist counterscreen assay (calcium detection, HEK-GPR139 cells)
Assay type: cell-based
Set-up: expressed in transfected cells; host or cells: HEK Aequorin cells, Maxcyte transient transfection
Settings: GPR139 Agonist Activity; ligand efficiency
Cut-off 0.4 on Efficiency Ligand, inclusive. At or above means 1; below means 0.

Below are worked cases with known answers.
CC(CCc1ccccc1)NC(=O)c1ccc2c(c1)C(Cc1ccccc1)C(=O)C[S+]2[O-] (stereo not drawn)	0
CSc1cccc(NC(=O)C2C3C=CC4(O3)C2C(=O)N(C(C)c2ccccc2)C4C(=O)NC2CCCCC2)c1 (stereo not drawn)	0
O=C(CC(C(=O)N1CCc2ccccc21)n1ccnc1)NCC1COc2ccccc2O1 (stereo not drawn)	0

Is Efficiency Ligand for COc1ccccc1C(=O)NNC(=O)C(C)Oc1ccc(Cl)cc1Cl (stereo not drawn) at or above 0.4?
1

Is Efficiency Ligand for CC(NC(=O)Cn1ncc2ccccc21)c1ccc2c(c1)OCCO2 (stereo not drawn) at or above 0.4?
0

Is Efficiency Ligand for O=C(CSc1ccc2ccccc2c1)NNC(=O)c1ccc(Br)s1 at or above 0.4?
1

Is Efficiency Ligand for COP(=O)(CN(CCc1ccc(Cl)cc1)C(=O)Nc1ccc(Cl)c(Cl)c1)OC at or above 0.4?
0
